So I've got a bunch of compounds here, and I need their z-score values.
assay: mitochondrial membrane potential change in A549 cells, profiling panel, cell-based, JC-1 fluorescence, basal, 24 h, 100 nL (AID 1138); conditions: higher = more signal;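 note: A549 lung adenocarcinoma cells under basal conditions with no added stimulus; test concentration not given here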
# respond with the number and nothing more

Incoming: # lookup: z-score of [N-]=[N+]=Nc1ccccc1[C@@H]1OC(c2ccc(OCCCO)cc2)=N[C@]1(Cc1ccccc1)C(=O)NCC(O)CO (some centres undefined)
Outgoing: 1.63

Incoming: # lookup: z-score of C=CCC(OC(C)=O)[C@@H]1[C@@H](N(Cc2cc3ccccc3o2)C(=O)c2ccc(C)cc2)c2cc(OCCCO)ccc2N1C(=O)Cc1ccc(OC)cc1 (some centres undefined)
Outgoing: 1.33

Incoming: # lookup: z-score of "COC(=O)c1c(CC[C@@H](CO)NC(=O)N2CCC[C@H]2Cn2cc(Cc3ccccc3)nn2)oc(C(C)=O)c1C(=O)OC"
Outgoing: -0.58

Incoming: # lookup: z-score of "COCCOC(=O)N1C(=O)[C@@]2(c3cc(C#Cc4ccc(OC)cc4)ccc31)[C@H](C(=O)Nc1nc3ccccc3s1)[C@H]1C(=O)O[C@H](c3ccccc3)[C@H](c3ccccc3)N1[C@@H]2c1ccc(O)cc1"
Outgoing: -2.26

Incoming: # lookup: z-score of "COC(=O)c1c(CC[C@@H](CO)NC(=O)N[C@H](Cn2cc(C3(O)CCCCC3)nn2)C(C)C)oc(C(C)=O)c1C(=O)OC"
Outgoing: 0.131

Incoming: # lookup: z-score of "CCCC[C@@H]1C[C@H]1[C@@H](NC(=O)c1ccccc1)c1ccc(C(F)(F)F)cc1"
Outgoing: -0.0527

Incoming: # lookup: z-score of "C=C(COC)/C(=C/C[C@H](OC(C)=O)c1ccc(OCCO)cc1)c1cc(C(=O)OC)ccc1OC"
Outgoing: 2.8

Incoming: # lookup: z-score of "C=CCNC(=O)[C@H]1[C@@H]2C(=O)O[C@@H](c3ccccc3)[C@@H](c3ccccc3)N2[C@@H](c2ccc(O)cc2)[C@]12C(=O)Nc1ccc(C#CC3(O)CCCCCC3)cc12"
Outgoing: -1.22

Incoming: # lookup: z-score of "COC(=O)[C@H](Cc1ccccc1)N1CC(/C=C/C2CC2)=C[C@H]1[C@H](O)Cc1ccccc1"
Outgoing: -0.267

Incoming: # lookup: z-score of "O=C1O[C@H](c2ccccc2)[C@H](c2ccccc2)N2[C@H]1[C@@H](C(=O)NC[C@H](O)c1ccccc1)[C@]1(C(=O)Nc3ccc(C#CCCO)cc31)[C@H]2c1ccc(OCCO)cc1"
Outgoing: -0.552

Incoming: # lookup: z-score of O=C1OCC=C[C@H]2OC34C=CCN(Cc5ccccc5)C(=O)[C@H]3N(CCCCCCO)C(=O)[C@@H]4[C@@H]12 (some centres undefined)
Outgoing: 0.0814

Incoming: # lookup: z-score of OCC1CC(c2ccccc2)=NO1 (centres undefined)
Outgoing: 0.875

Incoming: # lookup: z-score of CC(=O)c1ccc(C(O)C2C=CC3C(=O)N(c4ccccc4)C(=O)C3N2Nc2ccc(C#N)cc2)cc1 (centres undefined)
Outgoing: 0.0866

Incoming: # lookup: z-score of "O=C1O[C@@H](c2ccccc2)[C@@H](c2ccccc2)N2[C@@H](c3ccc(OCCO)cc3)[C@]3(C(=O)Nc4ccccc43)[C@@H](C(=O)O)[C@H]12"
Outgoing: -0.75

Origin of the recorded values: PubChem BioAssay
